Reported IC50 by item:
# ASSAY_SYSTEM: human LPA1 (Homo sapiens)
# Construct: the full-length cDNA for human LPA1 was obtained by PCR of the reverse transcription reaction
# PROCEDURE_DETAILS: LPA1 calcium flux assay
# STATED_CONDITIONS: CHO cells expressing human LPA1, stimulated with 10 nM LPA; read-out: HLPA1 Ca Flux IC50

Before answering, review these 2 worked examples.
COMPOUND	IC50
Cc1noc(-c2ccc(-c3ccc(C4(C(=O)O)CC4)cc3)cc2)c1CNC(=O)OCc1ccccc1 [Compound 1-57]	< 300 nM
Cc1noc(-c2ccc(-c3ccc(C4(CC(=O)O)CC4)cc3)cc2)c1C(O)COCc1cccc(C(F)(F)F)c1 (stereo not drawn) [Compound 1-244]	< 300 nM

Consider the additional compound presented here.
The reported value for CCCC(O)c1c(C)noc1-c1ccc(-c2ccc(C3(C(=O)O)CC3)cc2)cc1 (stereo not drawn) [Compound 1-166] in terms of IC50 is 1000 to 50000 nM

* * *

# ASSAY_SYSTEM: human LPA1 (Homo sapiens)
# Construct: the full-length cDNA for human LPA1 was obtained by PCR of the reverse transcription reaction
# PROCEDURE_DETAILS: LPA1 calcium flux assay
# STATED_CONDITIONS: CHO cells expressing human LPA1, stimulated with 10 nM LPA; read-out: HLPA1 Ca Flux IC50
RECORDED_METRIC: IC50

Here's what some known entries look like.
COMPOUND	ASSAY_SYSTEM	RECORDED_METRIC	TEST_RESULT
Cc1noc(-c2ccc(-c3ccc(C4(C(=O)O)CC4)cc3)cc2)c1NC(=O)NCc1ccccc1	human LPA1 (Homo sapiens)	IC50	< 300 nM
CC(=O)NC(CCCc1ccccc1)c1c(C)noc1-c1ccc(-c2ccc(C3(CC(=O)O)CC3)cc2)cc1 (stereo not drawn)	human LPA1 (Homo sapiens)	IC50	1000 to 50000 nM
Cc1noc(-c2ccc(-c3ccc(CCC(=O)O)cc3)cc2)c1C(O)COCc1cccc(C(F)(F)F)c1 (stereo not drawn)	human LPA1 (Homo sapiens)	IC50	300 to 1000 nM
Cc1noc(-c2ccc(-c3ccc(C4(C(=O)O)CC4)cc3)cc2)c1C[S+]([O-])Cc1ccccc1 (stereo not drawn)	human LPA1 (Homo sapiens)	IC50	> 50000 nM
Cc1noc(-c2ccc(-c3ccc(C4(C(=O)O)CC4)cc3)cc2)c1COC(=O)NCc1ccccc1	human LPA1 (Homo sapiens)	IC50	< 300 nM

Per the records, this compound ( Cc1noc(-c2ccc(-c3ccc(C4(C(=O)O)CC4)cc3)cc2)c1C(O)CSCC(F)(F)F (stereo not drawn) ) has IC50 equal to < 300 nM

// sample Cc1noc(-c2ccc(-c3ccc(C4(C(=O)O)CC4)cc3)cc2)c1NC(C)/C=C/c1ccccc1 (stereo not drawn) , its IC50 was < 300 nM

Summary for this compound, Cc1noc(-c2ccc(-c3ccc(C4(CC(=O)O)CC4)cc3)cc2)c1NC(C)CCc1cccc(Cl)c1 (stereo not drawn) : IC50 is < 300 nM

* * *

Listed below: IC50 values for each entry.
# ASSAY_SYSTEM: human LPA1 (Homo sapiens)
# Construct: the full-length cDNA for human LPA1 was obtained by PCR of the reverse transcription reaction
# PROCEDURE_DETAILS: LPA1 calcium flux assay
# STATED_CONDITIONS: CHO cells expressing human LPA1, stimulated with 10 nM LPA; read-out: HLPA1 Ca Flux IC50

Sample records with IC50:
COMPOUND	IC50
Cc1noc(-c2ccc(-c3ccc(C4(C(=O)O)CC4)cc3)cc2)c1C(=O)CCCc1ccccc1	1000 to 50000 nM
Cc1noc(-c2ccc(-c3ccc(C4(C(=O)O)CC4)cc3)cc2)c1CNC(=O)CCc1ccccc1	1000 to 50000 nM
Cc1noc(-c2ccc(-c3ccc(C4(C(=O)O)CC4)cc3)cc2)c1C(O)CSc1ccccc1 (stereo not shown)	< 300 nM
Cc1noc(-c2ccc(-c3ccc(C4(CC(=O)O)CC4)cc3)cc2)c1NC(C)CCc1ccc(Cl)cc1 (stereo not shown)	< 300 nM
Cc1noc(-c2ccc(-c3ccc(C4(C(=O)O)CC4)cc3)cc2)c1NC(=O)CC(C)C	1000 to 50000 nM

IC50 for Cc1noc(-c2ccc(-c3ccc(C4(CC(=O)O)CC4)cc3)cc2)c1NC(C)CCc1ccc2c(c1)OCO2 (stereo not shown) is < 300 nM

Looking up Cc1noc(-c2ccc(-c3ccc(C(Cc4ccccc4)C(=O)O)cc3)cc2)c1CSCCc1ccccc1 (stereo not shown) , I see its IC50 listed as < 300 nM

* * *

Some compounds, each annotated with its measured pIC50.
# ASSAY_SYSTEM: human LPA1 (Homo sapiens, UniProt Q92633)
# Construct: the full-length cDNA for human LPA1 was obtained by PCR of the reverse transcription reaction
# Sequence (Q92633 whole entry): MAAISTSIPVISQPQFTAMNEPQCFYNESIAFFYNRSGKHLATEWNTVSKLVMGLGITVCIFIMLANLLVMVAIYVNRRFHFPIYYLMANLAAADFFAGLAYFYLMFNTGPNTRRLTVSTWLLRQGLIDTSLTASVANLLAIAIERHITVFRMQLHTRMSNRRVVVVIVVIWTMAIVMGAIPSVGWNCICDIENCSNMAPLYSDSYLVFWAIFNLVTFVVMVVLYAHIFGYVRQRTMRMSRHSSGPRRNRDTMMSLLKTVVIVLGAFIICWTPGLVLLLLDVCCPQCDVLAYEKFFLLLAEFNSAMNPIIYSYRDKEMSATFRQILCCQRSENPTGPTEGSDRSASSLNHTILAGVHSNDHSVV
# PROCEDURE_DETAILS: LPA1 calcium flux assay
# STATED_CONDITIONS: CHO cells expressing human LPA1, stimulated with 10 nM LPA; read-out: HLPA1 Ca Flux IC50
pIC50: −log10 of the molar value.

Below, 6 compounds whose answers are already recorded.
COMPOUND	RECORDED_METRIC	TEST_RESULT
Cc1noc(-c2ccc(-c3ccc(C4(C(=O)O)CC4)cc3)cc2)c1CCC(=O)N(C)C(C)c1ccccc1 (stereo in doubt)	pIC50	4.30 to 6.00
Cc1noc(-c2ccc(-c3ccc(C4(C(=O)O)CC4)cc3)cc2)c1CCC(=O)N(C)[C@H](C)c1ccccc1	pIC50	> 6.52
Cc1noc(-c2ccc(-c3ccc(C4(C(=O)O)CC4)cc3)cc2)c1CSCC(C)C	pIC50	> 6.52
Cc1noc(-c2ccc(-c3ccc(C4(C(=O)O)CC4)cc3)cc2)c1NC(=O)NC(C)(C)C	pIC50	> 6.52
Cc1noc(-c2ccc(-c3ccc(C4(CC(=O)O)CC4)cc3)cc2)c1NC(C)CC(C)(C)c1ccccc1 (stereo not shown)	pIC50	> 6.52
Cc1noc(-c2ccc(-c3ccc(C4(C(=O)O)CC4)cc3)cc2)c1CN(C)C(=O)Cc1ccccc1	pIC50	6.00 to 6.52

Entry Cc1noc(-c2ccc(-c3ccc(C4CC4C(=O)O)cc3)cc2)c1[C@H](O)COCc1ccccc1 (single isomer, unassigned) [Compound 1-217] ; pIC50 = > 6.52

* * *

Entries annotated with measured pIC50
# ASSAY_SYSTEM: human LPA1 (Homo sapiens, UniProt Q92633)
# Construct: the full-length cDNA for human LPA1 was obtained by PCR of the reverse transcription reaction; expressed in transfected cells
# PROCEDURE_DETAILS: LPA1 calcium flux assay
# Assay type: cell-based
# STATED_CONDITIONS: CHO cells expressing human LPA1, stimulated with 10 nM LPA; read-out: HLPA1 Ca Flux IC50
pIC50: −log10 of the molar value.

COMPOUND	TEST_RESULT
Cc1noc(-c2ccc(-c3ccc(CC(=O)O)cc3)cc2)c1[C@H](O)CSCc1ccccc1	> 6.52
Cc1noc(-c2ccc(-c3ccc(C4(C(=O)O)CC4)cc3)cc2)c1C(O)C(F)(F)CCc1ccccc1 (single isomer, unassigned) [Compound 1-254]	6.00 to 6.52
Cc1noc(-c2ccc(-c3ccc(C4(C(=O)O)CC4)cc3)cc2)c1CCN(Cc1ccccc1)Cc1ccccc1	4.30 to 6.00
Cc1noc(-c2ccc(-c3ccc(C4(CC(=O)O)CC4)cc3)cc2)c1/C=C\CCc1ccccc1	> 6.52
Cc1noc(-c2ccc(-c3ccc(C4(C(=O)O)CC4)cc3)cc2)c1C(O)CN (centres unmarked)	> 6.52

Notebook: Cc1noc(-c2ccc(-c3ccc(C4(C(=O)O)CC4)cc3)cc2)c1C(O)C(=O)N[C@H](C)c1ccccc1 (some centres unmarked) , pIC50 read as > 6.52

Sure, the documented pIC50 for CCOc1cccc(Nc2c(C)noc2-c2ccc(-c3ccc(C4(C(=O)O)CC4)cc3)cc2)n1 is > 6.52

// field: pIC50; key: CC(=O)c1cccc(Nc2c(C)noc2-c2ccc(-c3ccc(C4(C(=O)O)CC4)cc3)cc2)n1 ; value = > 6.52

Kindly note the recorded pIC50 for Cc1noc(-c2ccc(-c3ccccc3C3(C(=O)O)CC3)cc2)c1/C=C/CCc1ccccc1 , which is 4.30 to 6.00

Cc1noc(-c2ccc(-c3ccc([C@H]4C[C@H]4C(=O)O)cc3)cc2)c1CSCCc1ccccc1 (single isomer, unassigned) [Compound 1-149] has a reported pIC50 of > 6.52

# compound Cc1noc(-c2ccc(-c3ccc(C4(C(=O)O)CC4)cc3)cc2)c1CSCC(=O)c1ccccc1 ; its pIC50 = 4.30 to 6.00

Data point: Cc1noc(-c2ccc(-c3ccc(C#CC(=O)O)cc3)cc2)c1N[C@@H](C)CCc1cccc(C(F)(F)F)c1 ; pIC50 = 6.00 to 6.52

For this compound ( Cc1noc(-c2ccc(-c3ccc(C4(C(=O)O)CC4)cc3)cc2)c1CN(C)C(=O)C(C)Oc1ccccc1 (centres unmarked) ), measured pIC50 is > 6.52

For this compound ( Cc1noc(-c2ccc(-c3ccc(C4(C(=O)O)CC4)cc3)cc2)c1NC1Cc2ccccc2C1 ), measured pIC50 is 6.00 to 6.52

The recorded pIC50 for Cc1noc(-c2ccc(-c3ccc(C4(C(=O)O)CC4)cc3)cc2)c1Nc1cccc(C(=O)O)n1 is 4.30 to 6.00

Entry Cc1noc(-c2ccc(-c3ccc(C4(C(=O)O)CC4)cc3)cc2)c1NC(=O)N(C)[C@H](C)c1ccccc1 — recorded pIC50 = 4.30 to 6.00

Memo: Cc1noc(-c2ccc(-c3ccc(C4(CC(=O)NS(C)(=O)=O)CC4)cc3)cc2)c1C(O)CCCc1ccccc1 (centres unmarked) , reported pIC50: > 6.52

Recorded result, Cc1noc(-c2ccc(-c3ccc(C4(C(=O)O)CC4)cc3)cc2)c1NC1CCc2ccccc2C1 (centres unmarked) , pIC50: > 6.52

For Cc1noc(-c2ccc(-c3ccc(C4(CC(=O)O)CC4)cc3)cc2)c1NC(C)CCc1cccc(F)c1 (centres unmarked) the compound record lists pIC50 as > 6.52

Record Cc1noc(-c2ccc(-c3ccc(C4(C(=O)O)CC4)cc3)cc2)c1/C=C/CN(Cc1ccccc1)S(C)(=O)=O , field pIC50: > 6.52

Note to self: pIC50 recorded for Cc1noc(-c2ccc(-c3ccc(C4(C(=O)O)CC4)cc3)cc2)c1NC(=O)NCC(F)(F)F was < 4.30

Form field pIC50, entry Cc1noc(-c2ccc(-c3ccc(C4(C(=O)O)CC4)cc3)cc2)c1Nc1cccnc1 : 4.30 to 6.00

Record Cc1noc(-c2ccc(-c3ccc(C4(C(=O)O)CC4)cc3)cc2)c1/C=C/CCc1ccccc1 . Reported pIC50: 6.00 to 6.52

In plain terms, Cc1noc(-c2ccc(-c3ccc(C4(C(=O)O)CC4)cc3)cc2)c1Nc1cncc(OC(C)C)c1 has a documented pIC50 of > 6.52

The reported pIC50 of the compound Cc1noc(-c2ccc(-c3ccc(C4(C(=O)O)CC4)cc3)cc2)c1Nc1cccc(O)n1 was 4.30 to 6.00

Memo: Cc1noc(-c2ccc(-c3ccc(C4(C(=O)O)CC4)cc3)cc2)c1C=CCCc1ccccc1 , reported pIC50: > 6.52

This collection of values is drawn from patent US9624182B2.
